System: ABHD3
Experiment: competitive ABPP of pPAFAH versus proteome hydrolases – biochemical, gel-based, FP-Rh fluorescence, complex proteome, SAR compounds, selectivity assay for pPAFAH inhibitor project, SAR follow-up (AID 588774);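 note: 0% = DMSO-only band intensity and 100% = blank gel background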
Conditions: at 10 µM, stronger effect = higher value
ATTRIBUTE MEASURED: inhibition (%)

Use these answered entries as a reference point.
O=C(Oc1noc2cc(Cl)ccc12)N1CCOCC1 :: 0
Cc1cc(N2CCN(C(=O)Oc3noc4cc(Cl)ccc34)CC2)c2ccccc2n1 :: 0
Cc1cc(N2CCN(C(=O)Oc3ccc(-c4ccc(Br)cc4)cc3)CC2)c2ccccc2n1 :: 0

1 = Cc1cc(N2CCN(C(=O)Oc3ccc([N+](=O)[O-])cc3)CC2)c2ccccc2n1
2 = COc1ccc(-c2cnn(C(=O)N3CCN(c4cc(C)nc5ccccc45)CC3)n2)cc1
Query block: Would you let me know which has the greater inhibition value, 1 or 2 ? Lab log: write the label of the selected item as the result.
Result block: 2

a = O=C(N1CCOCC1)n1oc2cc(Cl)ccc2c1=O
b = Cc1cc(N2CCN(C(=O)n3ncc(-c4ccccc4)n3)CC2)c2ccccc2n1
Query block: Please choose the item with the lower inhibition value from this pair: a and b Lab log: write the label of the selected item as the result.
Result block: a
(a: 0%, b: 100%)

I = Cc1cc(N2CCN(C(=O)Oc3ccc(C4CCCCC4)cc3)CC2)c2ccccc2n1
II = Cc1cc(N2CCN(C(=O)n3ncc(-c4ccc(Cl)c(Cl)c4)n3)CC2)c2ccccc2n1
Query block: Would you let me know which has the greater inhibition value, I or II ? Lab log: write the label of the selected item as the result.
Result block: II
(II: 100%, I: 0%)

a = Cc1cc(N2CCN(C(=O)Oc3ccc(-c4ccccc4)cc3)CC2)c2ccccc2n1
b = Cc1cc(N2CCN(C(=O)n3ncc(-c4ccc(OC(F)(F)F)cc4)n3)CC2)c2ccccc2n1
Query block: Please choose the item with the lower inhibition value from this pair: a and b Lab log: write the label of the selected item as the result.
Result block: a

###

Target: Monoglyceride lipase (Mus musculus) (UniProt O35678)
Sequence (O35678 whole entry, looked up): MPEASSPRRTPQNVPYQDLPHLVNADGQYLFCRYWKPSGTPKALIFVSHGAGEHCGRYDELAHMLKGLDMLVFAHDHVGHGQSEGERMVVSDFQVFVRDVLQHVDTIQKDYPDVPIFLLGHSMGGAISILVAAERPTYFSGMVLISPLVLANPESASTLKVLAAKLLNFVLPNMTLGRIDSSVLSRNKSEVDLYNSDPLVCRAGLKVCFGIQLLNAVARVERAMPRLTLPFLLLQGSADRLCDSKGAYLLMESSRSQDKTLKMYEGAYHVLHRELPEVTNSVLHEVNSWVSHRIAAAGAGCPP
Experiment: competitive ABPP of pPAFAH versus proteome hydrolases – biochemical, gel-based, FP-Rh fluorescence, complex proteome, SAR compounds, selectivity assay for pPAFAH inhibitor project, SAR follow-up (AID 588774);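 note: 0% = DMSO-only band intensity and 100% = blank gel background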
Details: MAGL, at 10 µM, stronger effect = higher value
ATTRIBUTE MEASURED: inhibition (%)

Use these answered entries as a reference point.
Cc1cc(N2CCN(C(=O)Oc3ccc(-c4ccccc4)cc3)CC2)c2ccccc2n1 :: 0
O=C(Oc1noc2cc(Cl)ccc12)N1CCCCC1 :: 23
O=C(Oc1noc2cc(Cl)ccc12)N1CCOCC1 :: 26
Cc1cc(N2CCN(C(=O)n3oc4cc(Cl)ccc4c3=O)CC2)c2ccccc2n1 :: 97

a = Cc1cc(N2CCN(C(=O)n3ncc(-c4ccc(OC(F)(F)F)cc4)n3)CC2)c2ccccc2n1
b = Cc1cc(N2CCN(C(=O)Oc3ccc(C(F)(F)F)cc3)CC2)c2ccccc2n1
Query block: Please choose the item with the lower inhibition value from this pair: a and b Lab log: write the label of the selected item as the result.
Result block: b

###

System: FAAH
Assay: competitive ABPP of pPAFAH versus proteome hydrolases – biochemical, gel-based, FP-Rh fluorescence, complex proteome, SAR compounds, selectivity assay for pPAFAH inhibitor project, SAR follow-up (AID 588774);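 note: 0% = DMSO-only band intensity and 100% = blank gel background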
Conditions: inhibition, at 1 µM, stronger effect = higher value
ATTRIBUTE MEASURED: inhibition (%)

Use these answered entries as a reference point.
Cc1cc(N2CCN(C(=O)Oc3noc4cc(Cl)ccc34)CC2)c2ccccc2n1 :: 100
O=C(N1CCOCC1)n1oc2cc(Cl)ccc2c1=O :: 96
Cc1cc(N2CCN(C(=O)n3oc4cc(Cl)ccc4c3=O)CC2)c2ccccc2n1 :: 79
COc1ccc(-c2cnn(C(=O)N3CCN(c4cc(C)nc5ccccc45)CC3)n2)cc1 :: 83

a = Cc1cc(N2CCN(C(=O)n3ncc(-c4ccccc4)n3)CC2)c2ccccc2n1
b = Cc1cc(N2CCN(C(=O)Oc3ccc([N+](=O)[O-])cc3)CC2)c2ccccc2n1
Query block: Would you let me know which has the greater inhibition value, a or b ? Lab log: write the label of the selected item as the result.
Result block: a
(a: 82%, b: 36%)

These data points were gathered from PubChem BioAssay AID588774.
